test system: LS174T; assay: Cytotoxicity assay; assay type: cell-based, human; conditions: LS174T (p53-WT), 72 h
endpoint.name: IC50 (µM)
Numbers only, in µM.

Query: IC50 lookup needed for N.N.[Cl][Pt][Cl] [Cisplatin, cisplatin] , thanks.
Result: 8.48

###

test system: DLD-1; experiment: Cytotoxicity assay; type: cell-based, human; conditions: Homo sapiens, DLD-1, 72 h
Kindly supply the reported pIC50 values for the records listed here.
Numbers only, as −log10 of the molar value.

1. CCc1c2c(nc3ccc(OC(=O)N4CCC(N5CCCCC5)CC4)cc13)-c1cc3c(c(=O)n1C2)COC(=O)[C@]3(O)CC [Irinotecan, irinotecan] :: 5.76
2. O=c1[nH]cc(F)c(=O)[nH]1 [5-FU, 5-fluorouracil] :: 4.77

Please look at the following compound next.
Query: pIC50 lookup needed for Cc1cc(NNC(=O)Nc2ccc(N(CCCl)CCCl)cc2)c2cc3c(cc2n1)OCO3 [SL-1] , thanks.
Result: 6.44

###

Kindly supply the reported pIC50 values for the records listed here.
tested on: Caco-2; assay: Cytotoxicity assay; type: cell-based; conditions: Homo sapiens, Caco-2, 72 h
Give bare numbers, as −log10 of the molar value.

1. Cc1cc(NNC(=O)Nc2ccc(N(CCCl)CCCl)cc2)c2cc3c(cc2n1)OCO3 :: 5.26

Please look at the following compound next.
Query: Caco-2 / pIC50 / CCc1c2c(nc3ccc(OC(=O)N4CCC(N5CCCCC5)CC4)cc13)-c1cc3c(c(=O)n1C2)COC(=O)[C@]3(O)CC : value?
Result: 4.67

###

Kindly supply the reported pIC50 values for the records listed here.
tested on: RKO-E6; experiment: Cytotoxicity assay; type: cell-based, human; conditions: RKO-E6 (p53-KO), 72 h
Numbers only, as −log10 of the molar value.

1. N.N.[Cl][Pt][Cl] [Cisplatin, cisplatin] :: 4.61

Query: pIC50 lookup needed for O=C1[O][Pt]2([NH][C@@H]3CCCC[C@H]3[NH]2)[O]C1=O [Oxaliplatin, oxaliplatin] , thanks.
Result: 4.99

###

test system: LoVo; assay: Cytotoxicity assay; assay type: cell-based, human; conditions: LoVo (p53-WT), 72 h
endpoint.name: IC50 (µM)
Give bare numbers, in µM.

1. O=C1[O][Pt]2([NH][C@@H]3CCCC[C@H]3[NH]2)[O]C1=O :: 1.65

Please look at the following molecule next.
Query: IC50 lookup needed for N.N.[Cl][Pt][Cl] [Cisplatin, cisplatin] , thanks.
Result: 6.38

###

system: HT-29; test: Cytotoxicity assay; assay type: cell-based, human; conditions: HT-29 (p53-MT), 72 h
Kindly supply the reported IC50 values for the records listed here.
// unit must come after the numeric part

1) O=C1[O][Pt]2([NH][C@@H]3CCCC[C@H]3[NH]2)[O]C1=O [Oxaliplatin, oxaliplatin] :: 1.92 µM

Please look at the following compound next.
Query: HT-29 / IC50 / N.N.[Cl][Pt][Cl] [Cisplatin, cisplatin] : value?
Result: 5.99 µM
